Measured values drawn from ChEMBL document CHEMBL1201862 for this set.

System: IGROV-1
Experiment: NCI tumour cell line growth inhibition, 48 h
Calls of active or inactive are those of the source. Rule as the data show it: active = GI50 up to about 1.1 µM and inactive = higher.
So I've got a bunch of molecules here, and I need their GI50 values.

Noted for CC(=O)OCC1OC(n2c(Br)nc3c2c(=O)n(C)c(=O)n3C)C(OC(C)=O)C1OC(C)=O (stereo unspecified) : its GI50 reads > 100 µM (inactive)

Noted for `O=C1CSC(=S)N1c1ccco1` : its GI50 reads > 100 µM (inactive)

Noted for CCC(C)(C)C1CCC2c3c([nH]c4ccccc34)C3C(=O)N(c4ccc(OC)cc4)C(=O)C3C2C1 (stereo unspecified) : its GI50 reads 15.7 µM (inactive)

Noted for `CC(=O)NNc1nc(C)c(C(=O)NNC(=O)C(=O)Nc2c(C)cccc2C)s1` : its GI50 reads 46.1 µM (inactive)

Noted for `NC(=O)c1ncn2c(=O)n(CCl)nnc12` : its GI50 reads > 100 µM (inactive)

Noted for `NC1=C(Cl)C(=O)c2ccccc2C1=O` : its GI50 reads 9.82 µM (inactive)
